- assaySystem: Jak2 (UniProt O60674)
- Sequence (O60674 whole entry, looked up): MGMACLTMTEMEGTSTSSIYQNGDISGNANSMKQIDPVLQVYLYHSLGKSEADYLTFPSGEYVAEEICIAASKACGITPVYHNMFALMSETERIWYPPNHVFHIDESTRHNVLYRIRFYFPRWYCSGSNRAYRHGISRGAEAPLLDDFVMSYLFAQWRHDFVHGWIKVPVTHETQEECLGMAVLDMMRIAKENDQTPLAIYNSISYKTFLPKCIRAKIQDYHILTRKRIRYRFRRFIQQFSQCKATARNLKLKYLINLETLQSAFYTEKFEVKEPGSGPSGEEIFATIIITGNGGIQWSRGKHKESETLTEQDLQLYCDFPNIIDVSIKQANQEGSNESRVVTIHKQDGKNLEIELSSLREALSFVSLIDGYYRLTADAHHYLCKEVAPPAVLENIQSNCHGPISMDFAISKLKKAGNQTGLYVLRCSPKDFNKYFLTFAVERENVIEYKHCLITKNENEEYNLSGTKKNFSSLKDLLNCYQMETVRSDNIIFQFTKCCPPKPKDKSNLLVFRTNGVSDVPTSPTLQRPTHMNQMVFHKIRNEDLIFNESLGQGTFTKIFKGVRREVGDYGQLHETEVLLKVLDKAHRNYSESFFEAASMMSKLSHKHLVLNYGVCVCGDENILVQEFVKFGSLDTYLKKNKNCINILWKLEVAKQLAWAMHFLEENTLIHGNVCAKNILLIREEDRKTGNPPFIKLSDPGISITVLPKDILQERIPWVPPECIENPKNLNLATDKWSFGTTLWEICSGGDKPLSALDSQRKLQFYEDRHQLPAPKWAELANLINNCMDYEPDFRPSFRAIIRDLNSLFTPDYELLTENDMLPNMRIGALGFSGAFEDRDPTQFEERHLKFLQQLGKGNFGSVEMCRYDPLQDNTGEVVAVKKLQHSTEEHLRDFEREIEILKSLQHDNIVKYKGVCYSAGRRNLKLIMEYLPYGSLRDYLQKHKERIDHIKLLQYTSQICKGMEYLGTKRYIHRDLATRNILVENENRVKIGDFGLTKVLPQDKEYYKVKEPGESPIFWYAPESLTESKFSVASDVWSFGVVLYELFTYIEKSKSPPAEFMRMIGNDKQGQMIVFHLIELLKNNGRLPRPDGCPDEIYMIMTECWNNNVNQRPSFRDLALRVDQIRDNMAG
- experimentalProtocol: phosphorylation enrichment, bacterial display (enrichment ratio); higher = better substrate or ligand; peptides without Tyr show the background
parameterMeasured: phosphorylation enrichment

| orderedResidues | reading |
| --- | --- |
| KKCTRYIDCDL [ASPA_Y64] | 0.782 |
| LSSETYVKSYT [F5_Y2149_M2148T] | 1.37 |
| QLDQRYLLVPE [DDX49_Y223] | 0.748 |
| ECKLFYSRKEG [PTPN11_Y263_L262F] | 0.685 |
| SGKSEYLLPVA [MYLK_Y611_R607G] | 0.721 |

---

- assaySystem: SHP2-C SH2
- experimentalProtocol: SH2 binding enrichment of the phosphorylated peptide, bacterial display (enrichment ratio); higher = better substrate or ligand; peptides without Tyr show the background
Tag: true if measured SH2 binding enrichment is not below 0.7, false if it is.

| orderedResidues | answerLabel |
| --- | --- |
| LDMSQYFRLFN [CPT2_Y217] | true |
| EKEKEYMLPLD [DNM2_Y563_K562E] | true |
| AELKLYSGAQT [ZAP70_Y178_R175L] | false |
| CTTIRYNYMCN [TP53_Y234_H233R] | true |
| GLALRYLSDHS [VWF_Y1584] | false |
| ANNPLYKEATP [ITGB3_Y773_S778P] | true |
| TNFRLYLRSLE [MTM1_Y71_YF] | false |
| KMMGRYEMFAR [UPB1_Y362_T359M_YF] | true |
| SLLPDYEDEEE [ZNF830_Y159] | true |
| GFCSWYRGWAP [TIMP3_Y195_YF] | true |
| NSRYTYKLEVK [USH2A_Y3747] | true |
| ELTTCYRKKCS [CCBE1_Y70_C75S] | true |
| AMCVCYDGVEV [ADAMTSL2_Y594_R593C] | false |
| KMKGEYFRFLA [YWHAG_Y130_D129E_YF] | true |
| IMITDYLLLFR [INSR_Y87] | true |
| SSQHRYSTPHT [RAF1_Y232_A237T] | true |

---

Reported phosphorylation enrichment is given for each of the following sequences.
- assaySystem: EPHB2 (UniProt P29323)
- Sequence (P29323 whole entry, looked up): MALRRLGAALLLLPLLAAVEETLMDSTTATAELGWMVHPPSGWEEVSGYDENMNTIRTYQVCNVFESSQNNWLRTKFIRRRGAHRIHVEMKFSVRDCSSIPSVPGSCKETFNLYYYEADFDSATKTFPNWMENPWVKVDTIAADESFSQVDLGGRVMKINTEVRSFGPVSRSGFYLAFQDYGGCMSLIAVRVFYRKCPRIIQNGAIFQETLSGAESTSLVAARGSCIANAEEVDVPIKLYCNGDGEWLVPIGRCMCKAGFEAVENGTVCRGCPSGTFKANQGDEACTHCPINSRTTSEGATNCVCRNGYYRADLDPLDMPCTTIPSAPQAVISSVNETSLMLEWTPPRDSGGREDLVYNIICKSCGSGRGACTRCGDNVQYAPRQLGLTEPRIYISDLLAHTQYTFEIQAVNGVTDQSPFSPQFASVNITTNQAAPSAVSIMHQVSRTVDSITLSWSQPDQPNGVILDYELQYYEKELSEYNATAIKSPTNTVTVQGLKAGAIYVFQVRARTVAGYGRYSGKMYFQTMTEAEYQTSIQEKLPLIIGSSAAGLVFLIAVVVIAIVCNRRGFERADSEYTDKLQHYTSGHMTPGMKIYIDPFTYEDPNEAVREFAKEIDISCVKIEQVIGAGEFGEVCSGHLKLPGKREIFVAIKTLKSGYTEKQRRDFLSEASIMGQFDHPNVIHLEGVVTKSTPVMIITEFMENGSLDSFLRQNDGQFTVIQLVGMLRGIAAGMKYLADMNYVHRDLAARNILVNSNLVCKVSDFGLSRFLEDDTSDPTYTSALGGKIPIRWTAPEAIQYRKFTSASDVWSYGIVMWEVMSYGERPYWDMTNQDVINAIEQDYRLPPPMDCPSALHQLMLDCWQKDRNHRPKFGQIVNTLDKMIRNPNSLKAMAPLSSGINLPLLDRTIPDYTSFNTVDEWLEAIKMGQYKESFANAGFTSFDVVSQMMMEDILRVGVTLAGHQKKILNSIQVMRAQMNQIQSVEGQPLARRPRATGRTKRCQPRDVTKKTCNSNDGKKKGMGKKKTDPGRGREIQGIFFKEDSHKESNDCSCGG
- experimentalProtocol: phosphorylation enrichment, bacterial display (enrichment ratio); higher = better substrate or ligand; peptides without Tyr show the background

| orderedResidues | phosphorylation enrichment |
| --- | --- |
| GKANRYFSPNF [PTEN_Y336_D331G] | 0.424 |
| RQNQEYEILMD [KRT39_Y379_L383M] | 1.58 |
| PLCPDYQEPSR [DDR2_Y481_R478C] | 2.01 |

---

- assaySystem: c-Src SH2
- experimentalProtocol: SH2 binding enrichment of the phosphorylated peptide, bacterial display (enrichment ratio); higher = better substrate or ligand; peptides without Tyr show the background
Rule: condition met for SH2 binding enrichment not less than 0.9, condition not met for anything less.

| orderedResidues | assaySystem | answerLabel |
| --- | --- | --- |
| RRESPYGGGGG [FUS_Y526_R524S] | c-Src SH2 | condition not met |
| LSALDYKIFYY [WDPCP_Y210] | c-Src SH2 | condition met |
| SHISGYATLRR [RAPH1_Y1226] | c-Src SH2 | condition not met |
| LQLLGDRPVYS [CHST6_Y358_Y358D] | c-Src SH2 | condition not met |
| FARECYSALPQ [SARS2_Y52_G51C_YF] | c-Src SH2 | condition not met |
| SLFNGYVYSGV [NEIL3_Y71] | c-Src SH2 | condition met |

---

- assaySystem: MERTK (UniProt Q12866)
- Sequence (Q12866 whole entry, looked up): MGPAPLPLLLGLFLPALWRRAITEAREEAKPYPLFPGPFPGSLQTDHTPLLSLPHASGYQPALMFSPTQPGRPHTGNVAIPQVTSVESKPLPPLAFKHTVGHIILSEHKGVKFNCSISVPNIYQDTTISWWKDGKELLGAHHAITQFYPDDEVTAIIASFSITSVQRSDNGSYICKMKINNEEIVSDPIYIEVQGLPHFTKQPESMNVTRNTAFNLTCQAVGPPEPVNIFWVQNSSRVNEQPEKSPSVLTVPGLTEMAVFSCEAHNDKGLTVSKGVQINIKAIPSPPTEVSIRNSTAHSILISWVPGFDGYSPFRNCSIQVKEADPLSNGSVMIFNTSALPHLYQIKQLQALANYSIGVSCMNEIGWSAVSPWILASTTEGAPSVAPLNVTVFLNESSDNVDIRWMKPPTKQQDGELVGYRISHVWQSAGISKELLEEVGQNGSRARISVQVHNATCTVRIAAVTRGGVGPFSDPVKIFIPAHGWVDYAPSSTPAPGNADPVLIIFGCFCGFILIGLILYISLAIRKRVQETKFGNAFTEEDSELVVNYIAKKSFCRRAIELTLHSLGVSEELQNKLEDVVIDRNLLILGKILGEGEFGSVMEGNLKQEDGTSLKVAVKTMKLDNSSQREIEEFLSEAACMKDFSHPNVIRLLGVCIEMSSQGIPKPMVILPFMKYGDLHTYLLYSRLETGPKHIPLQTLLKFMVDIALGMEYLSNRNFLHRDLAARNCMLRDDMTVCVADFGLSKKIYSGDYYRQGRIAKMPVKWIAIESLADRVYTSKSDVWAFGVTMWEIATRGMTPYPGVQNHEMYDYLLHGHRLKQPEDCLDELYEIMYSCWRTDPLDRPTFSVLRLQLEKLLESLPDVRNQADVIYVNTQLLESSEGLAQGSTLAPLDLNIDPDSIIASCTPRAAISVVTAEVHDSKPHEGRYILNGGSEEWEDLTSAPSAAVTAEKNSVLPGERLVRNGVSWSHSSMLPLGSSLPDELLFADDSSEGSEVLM
- experimentalProtocol: phosphorylation enrichment, bacterial display (enrichment ratio); higher = better substrate or ligand; peptides without Tyr show the background

| orderedResidues | assaySystem | phosphorylation enrichment |
| --- | --- | --- |
| TKVVHYWKWIK [KLK2_Y249_R250W] | MERTK (UniProt Q12866) | 0.51 |
| GRDQPYSGTGD [TYRO3_Y828_A831T] | MERTK (UniProt Q12866) | 0.492 |
| SVTCTYSLALN [TP53_Y126_P128L] | MERTK (UniProt Q12866) | 0.614 |
| GDPTEYYSTAI [IGSF22_Y501] | MERTK (UniProt Q12866) | 0.497 |
| LLIMEYAKYGS [RET_Y806_V804M] | MERTK (UniProt Q12866) | 0.6 |

---

- assaySystem: Grb2 SH2 (UniProt P62993)
- Sequence (P62993 whole entry, looked up): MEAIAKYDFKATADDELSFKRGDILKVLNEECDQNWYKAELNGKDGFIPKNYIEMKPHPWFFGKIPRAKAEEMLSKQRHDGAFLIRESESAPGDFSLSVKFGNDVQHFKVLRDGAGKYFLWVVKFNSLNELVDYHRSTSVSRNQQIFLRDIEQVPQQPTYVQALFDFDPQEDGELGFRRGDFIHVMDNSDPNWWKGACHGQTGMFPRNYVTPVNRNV
- experimentalProtocol: SH2 binding enrichment of the phosphorylated peptide, bacterial display (enrichment ratio); higher = better substrate or ligand; peptides without Tyr show the background

| orderedResidues | SH2 binding enrichment |
| --- | --- |
| VFAANYFKLLG [ROR2_Y645_D644N_YF] | 0.991 |
| DRLAVCIDRVR [LMNA_Y45_Y45C] | 0.807 |
| TPGPNYCPGFN [USH2A_Y463_R464C_YF] | 0.987 |
| FIATQYSLRPR [LBR_Y166_YF] | 1.01 |
| QTLTDYDTRFY [CSNK2A3_Y131_I133T] | 0.815 |
| AVDDKYSRREE [SART1_Y685_I681V] | 1.02 |
| KNEVFYQCPDQ [FBXO3_Y223] | 0.783 |
| QERPEYWDQET [HLA-A_Y83_G80R] | 0.985 |
| GRRNTYYASIA [ACADM_Y352] | 0.779 |
| EATKGYLDDPT [G6PD_Y322] | 0.785 |
| TIEDSYRKQVV [KRAS_Y40] | 0.818 |
| DAHFTYSRYPW [LY75_Y888_D884A] | 0.817 |
| GADDSYYTARS [ZAP70_Y492] | 0.816 |
| SRGSSYNSIPK [FLNC_Y2625_S2626N] | 0.818 |
| GDPTEYFSTAI [IGSF22_Y501_YF] | 0.788 |
| RNIQQCNSFVS [PRKAR1A_Y373_Y373C] | 0.82 |
| EPNSRYTYKLE [USH2A_Y3745] | 1.02 |

---

- assaySystem: Hck (UniProt P08631)
- Sequence (P08631 whole entry, looked up): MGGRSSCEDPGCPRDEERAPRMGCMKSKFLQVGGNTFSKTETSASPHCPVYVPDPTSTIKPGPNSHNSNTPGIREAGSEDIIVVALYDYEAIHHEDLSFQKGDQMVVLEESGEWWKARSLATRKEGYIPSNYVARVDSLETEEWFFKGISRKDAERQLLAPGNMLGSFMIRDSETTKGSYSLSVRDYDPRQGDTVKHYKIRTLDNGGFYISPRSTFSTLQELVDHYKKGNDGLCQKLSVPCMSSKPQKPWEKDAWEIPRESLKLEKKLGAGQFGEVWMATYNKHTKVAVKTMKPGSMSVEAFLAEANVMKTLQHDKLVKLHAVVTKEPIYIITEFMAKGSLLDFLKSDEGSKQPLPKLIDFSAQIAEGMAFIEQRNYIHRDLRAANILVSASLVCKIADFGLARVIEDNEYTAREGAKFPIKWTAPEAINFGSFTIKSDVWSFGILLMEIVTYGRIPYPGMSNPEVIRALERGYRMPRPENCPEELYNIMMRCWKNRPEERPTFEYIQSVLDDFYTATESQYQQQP
- experimentalProtocol: phosphorylation enrichment, bacterial display (enrichment ratio); higher = better substrate or ligand; peptides without Tyr show the background

| orderedResidues | phosphorylation enrichment |
| --- | --- |
| ANNPLYKEATP [ITGB3_Y773_S778P] | 0.4 |
| DEGVNHFMSKG [FBXO8_Y156_Y156H] | 0.364 |
| GYEEAYSVSKK [PAFAH1B1_Y28_F31S] | 0.447 |
| SIKDKYVTVLF [KCNH2_Y611_A614V_YF] | 0.546 |
| VTRKEYFIFLE [CAMKV_Y95] | 0.43 |
| MSNSAYVKREV [SCN1A_Y1694_F1692S] | 0.399 |
| YKGKNYKPLDL [RPL35_Y78_K77N] | 0.276 |
| QMVGMYASSSM [AVPR2_Y124_Y128S] | 0.766 |
| PLSGEYFTLQI [TP53_Y327_D324S] | 1.89 |
| ISIFRYAKGQP [MPZ_Y82_H81R] | 0.402 |
| DAHFTYSRYPW [LY75_Y888_D884A] | 3.76 |
| ADFPDYKFRPR [SOX11_Y116_YF] | 0.501 |
| PLKYLYPNIDK [STAT1_Y668] | 0.782 |
| RHPFFYAPELL [ALB_Y174_YF] | 0.733 |
| YLQEIYNSNNQ [FGG_Y140] | 1.54 |
| ALADKYHGGGG [HBB_Y146_H144D] | 0.355 |
| SSQHRYSTPHT [RAF1_Y232_A237T] | 0.312 |
| KLASTYREAAT [DEAF1_Y483_H479L] | 0.318 |
| EPNSRYTYKLE [USH2A_Y3745] | 0.439 |
| NLNGKCNKPRA [ANGPTL3_Y417_Y417C] | 0.347 |
| GGRIDYIAGLV [APRT_Y60_D65V] | 0.568 |

---

Recorded measurements of SH2 binding enrichment, one per entry
- assaySystem: Grb2 SH2 (UniProt P62993)
- experimentalProtocol: SH2 binding enrichment of the phosphorylated peptide, bacterial display (enrichment ratio); higher = better substrate or ligand; peptides without Tyr show the background
parameterMeasured: SH2 binding enrichment

| orderedResidues | reading |
| --- | --- |
| SYTDPYAQPPL [KMT2D_Y2378] | 0.91 |
| IVLEKYKLLPE [DHFR_Y157_D153V] | 0.922 |
| FLTQHHDAKPQ [ANG_Y38_Y38H] | 0.876 |
